Test system: T1, DC-SIGN (DC-specific intercellular adhesion molecule 3-grabbing nonintegrin) (UniProt Q9NNX6 62-404, limits assumed)
T1 sequence (looked up): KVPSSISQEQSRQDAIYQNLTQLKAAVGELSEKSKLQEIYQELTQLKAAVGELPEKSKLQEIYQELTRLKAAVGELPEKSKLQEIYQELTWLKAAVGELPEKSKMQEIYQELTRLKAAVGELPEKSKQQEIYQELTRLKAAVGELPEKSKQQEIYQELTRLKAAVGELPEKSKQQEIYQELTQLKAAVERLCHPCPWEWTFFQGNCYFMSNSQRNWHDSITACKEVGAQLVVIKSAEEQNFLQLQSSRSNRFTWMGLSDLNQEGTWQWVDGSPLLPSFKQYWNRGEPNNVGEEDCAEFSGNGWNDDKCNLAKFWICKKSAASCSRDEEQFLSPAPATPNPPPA
Method: SPR, DC-SIGN immobilised on CM5 chip, equilibrium fit Req=Rmax/(1+(Kd/C))
Where no end group is shown, it is not given here.
Quantity: Kd
Output should be the measured figure followed by the unit it is expressed in.

// query Kd value for entry {GST}-GSGEKDSVTFDVSKLKEGEQYMFFCT (other, also: GST fusion, vector linker residues not given here, not shown: glutathione S-transferase from the commercial vector pGEX-5X) [GST-Azu 88-113 (GST fused to azurin amino acids 88 to 113)] 5.98 nM
